Recorded IC50 by entry
TARGET OF ASSAY: IL-17A/A (Homo sapiens)
Construct: purchased Genscript Z03228
ASSAY METHOD TEXT: IL-17A/A HEK-Blue Cell Assay
Type: cell-based
CONDITION SUMMARY: HEK-Blue IL-17A reporter cell line, SEAP readout at A630, 20 hours incubation with IL-17A/A; top concentration 10 uM, 1 uM or 0.3 uM; read-out: IL-17A/A inhibition (pIC50) (converted)

Record excerpt, results attached:
INSERT INTO results (compound, data_value) VALUES
  ('CCc1nocc1C(=O)N[C@H](C(=O)Nc1ccc([C@H](C)[C@@H](NC(=O)c2cnns2)C(=O)N2CCN(C)CC2)cc1F)[C@H]1CC[C@H](C)CC1 [Compound 414]', '< 10 nM'),
  ('CCC(=O)N[C@@H](C(=O)N1CCN(C)CC1)[C@@H](C)c1ccc(NC(=O)C(NC(=O)c2ccnn2CC)C(CC)c2ccc(F)cc2)c(F)c1 (single isomer, unassigned) [Compound 554]', '100 to 10000 nM'),
  ('CCC(=O)N[C@@H](C(=O)N1CCN(C)CC1)[C@@H](C)c1ccc(NC(=O)C(NC(=O)c2nonc2CC)C(CC)c2ccc(Cl)cc2)c(F)c1 (some centres unmarked) [Compound 566]', '10 to 100 nM');

Kindly consider the entry below.
Could you share what IC50 was measured for CCC(=O)N[C@H](Cc1ccc(NC(=O)[C@@H](NC(=O)c2ccnn2CC)C2CCCCC2)c(F)c1)C(=O)N1CCN(Cc2ccccn2)CC1 [Compound 640] , tested on IL-17A/A (Homo sapiens)? 100 to 10000 nM

---

TARGET OF ASSAY: IL-17A/A (Homo sapiens)
Construct: purchased Genscript Z03228
Sequence (Q16552 24-155): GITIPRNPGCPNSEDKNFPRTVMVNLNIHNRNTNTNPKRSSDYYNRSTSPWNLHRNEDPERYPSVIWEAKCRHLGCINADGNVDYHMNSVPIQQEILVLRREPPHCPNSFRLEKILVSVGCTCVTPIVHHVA
ASSAY METHOD TEXT: IL-17A/A HEK-Blue Cell Assay
Type: cell-based
CONDITION SUMMARY: HEK-Blue IL-17A reporter cell line, SEAP readout at A630, 20 hours incubation with IL-17A/A; top concentration 10 uM, 1 uM or 0.3 uM; read-out: IL-17A/A inhibition (pIC50) (converted)
QUANTITY NAME: IC50

INSERT INTO measurements (molecule, target_of_assay, quantity_name, data_value) VALUES
  ('CCn1nccc1C(=O)N[C@H](C(=O)Nc1ccc([C@H](C)[C@@H](NC(=O)c2cc(C)no2)C(=O)N2CCN(C)CC2)cc1F)C1CCCCC1', 'IL-17A/A (Homo sapiens)', 'IC50', '0.1 to 10 µM'),
  ('CC(C)n1nccc1C(=O)N[C@H](C(=O)Nc1ccc([C@H](C)[C@@H](NC(=O)c2ccnn2CC2CC2)C(=O)N2CCN(C)CC2)cc1F)[C@H]1CC[C@H](C)CC1', 'IL-17A/A (Homo sapiens)', 'IC50', '< 0.01 µM');

# get_value(readout='IC50', item= "CCn1nccc1C(=O)N[C@H](C(=O)Nc1ccc([C@H](C)[C@@H](NC(=O)CC2CC2)C(=O)N2CCN(Cc3ccccc3)CC2)cc1F)[C@H]1CC[C@H](C)CC1" ) < 0.01 µM

# get_value(readout='IC50', item= "CCC(=O)N[C@H](Cc1ccc(NC(=O)[C@@H](NC(=O)C(F)(F)c2ccc(C)cc2)C2CCCCC2)c(F)c1)C(=O)N1CCN(C)CC1" ) 0.1 to 10 µM

# get_value(readout='IC50', item= "CCn1nccc1C(=O)N[C@H](C(=O)Nc1ccc([C@H](C)[C@@H](NC(=O)c2cnnn2C)C(=O)N2CCN(C)CC2)cc1F)C1CCCCC1" ) 0.01 to 0.1 µM

# get_value(readout='IC50', item= CCC(=O)N[C@@H](C(=O)N1CCN(C)CC1)[C@@H](C)c1ccc(NC(=O)C(NC(=O)c2conc2CC)C2CCc3ccccc32)c(F)c1 (stereo partly drawn) ) < 0.01 µM

# get_value(readout='IC50', item= "CCC(=O)N[C@@H](C(=O)N1CCN(C)CC1)[C@@H](C)c1ccc(NC(=O)[C@@H](NC(=O)c2csc3cnccc23)C2CCCCC2)c(F)c1" ) 0.01 to 0.1 µM

# get_value(readout='IC50', item= "CCC(=O)N[C@H](Cc1ccc(NC(=O)[C@@H](NC(=O)c2ccnn2C(C)C)C2CCCCC2)c(F)c1)C(=O)N1CCN(C)CC1" ) 0.1 to 10 µM

---

Recorded IC50 by entry
TARGET OF ASSAY: IL-17A/A (Homo sapiens, UniProt Q16552)
Construct: purchased Genscript Z03228
Sequence (Q16552 24-155): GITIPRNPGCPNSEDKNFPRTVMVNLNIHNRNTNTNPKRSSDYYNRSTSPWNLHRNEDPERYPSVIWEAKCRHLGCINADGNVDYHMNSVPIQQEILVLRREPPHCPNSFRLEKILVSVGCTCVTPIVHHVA
ASSAY METHOD TEXT: IL-17A/A HEK-Blue Cell Assay
Type: cell-based
CONDITION SUMMARY: HEK-Blue IL-17A reporter cell line, SEAP readout at A630, 20 hours incubation with IL-17A/A; top concentration 10 uM, 1 uM or 0.3 uM; read-out: IL-17A/A inhibition (pIC50) (converted)
Procedure: The HEK-Blue IL-17A reporter cell line (Fisher #NC1408637) was used for cell-based IL-17A/A inhibition assays. Cells were grown and prepared for assays according to the manufacturer's instructions. […] Media from the cells is then added to a development reagent (Quanti-Blue Substrate, Fisher #NC9711613), and read at A630. […]

Record excerpt, results attached:
INSERT INTO measurements (molecule, quantity_name, data_value) VALUES
  ('CCC(=O)N[C@@H](C(=O)N1CCN(C)CC1)[C@@H](C)c1ccc(NC(=O)C(NC(=O)c2nonc2CC)C(C)C2CCC(F)(F)CC2)c(F)c1 (stereo partly shown)', 'IC50', '10 to 100 nM'),
  ('CCC(=O)N[C@H](Cc1ccc(NC(=O)[C@@H](NC(=O)c2ccnn2CC)C2CCCCC2)c(F)c1)C(=O)N1CCN(Cc2ccccc2)CC1', 'IC50', '10 to 100 nM');

# get_value(readout='IC50', item= "CCC(=O)N[C@@H](C(=O)N1CCN(C)CC1)[C@@H](C)c1ccc(NC(=O)[C@@H](NC(=O)C(F)(F)c2cncc(C#N)c2)C2CCCCCC2)c(F)c1" ) < 10 nM

# get_value(readout='IC50', item= "CCC(=O)N[C@@H](C(=O)N1CCC(O)CC1)[C@@H](C)c1ccc(NC(=O)[C@@H](NC(=O)c2cnn(C3CCCC3)c2)[C@H]2CC[C@H](C)CC2)c(F)c1" ) 10 to 100 nM

# get_value(readout='IC50', item= "CCn1nccc1C(=O)N[C@H](C(=O)Nc1ccc([C@H](C)[C@@H](NC(=O)OC)C(=O)N2CCN(C)CC2)cc1F)[C@H]1CC[C@H](C)CC1" ) 10 to 100 nM

# get_value(readout='IC50', item= "COc1ccc(C(F)(F)C(=O)N[C@H](C(=O)Nc2ccc([C@H](C)[C@@H](NC(=O)c3cnns3)C(=O)N3CCN(C)CC3)cc2F)C2CCCCC2)cn1" ) < 10 nM

# get_value(readout='IC50', item= "CCC(=O)N[C@@H](C(=O)N1CCN(C)CC1)[C@@H](C)c1ccc(NC(=O)[C@@H](NC(=O)C(F)(F)c2cccc(C#N)c2)C2CCOCC2)c(F)c1" ) 100 to 10000 nM

# get_value(readout='IC50', item= "CCn1nccc1C(=O)N[C@H](C(=O)Nc1ccc([C@H](C)[C@@H](NC(=O)c2cnns2)C(=O)N2CCN(CCO)CC2)cc1F)[C@H]1CC[C@H](C)CC1" ) 10 to 100 nM

# get_value(readout='IC50', item= "CCC(=O)N[C@@H](C(=O)N1CCN(CCOC)CC1)[C@@H](C)c1ccc(NC(=O)[C@@H](NC(=O)c2ccnn2CC)C2CCCCC2)c(F)c1" ) 10 to 100 nM

# get_value(readout='IC50', item= "CCn1nccc1C(=O)N[C@H](C(=O)Nc1ccc([C@H](C)[C@@H](NC(=O)c2cc(C)n[nH]2)C(=O)N2CCN(C)CC2)cc1F)C1CCCCC1" ) 100 to 10000 nM

# get_value(readout='IC50', item= "CCC(=O)N[C@@H](C(=O)N1CCOCC1)[C@@H](C)c1ccc(NC(=O)[C@@H](NC(=O)c2ccnn2CC)[C@H]2CC[C@H](C)CC2)c(F)c1" ) 10 to 100 nM

# get_value(readout='IC50', item= "CCC(=O)N[C@@H](C(=O)N1CCN(C)CC1)[C@@H](C)c1ccc(NC(=O)[C@@H](NC(=O)c2ccnn2CC)[C@H]2CC[C@H](C)CC2)c(F)c1" ) 10 to 100 nM

# get_value(readout='IC50', item= "CCC(=O)N[C@@H](C(=O)N1CCN(C)CC1)[C@@H](C)c1ccc(NC(=O)[C@@H](NC(=O)c2ccc(CNC(=O)COCC(=O)O)s2)C2CCCCC2)c(F)c1" ) 100 to 10000 nM

# get_value(readout='IC50', item= "CCC(=O)N[C@H](Cc1ccc(NC(=O)[C@@H](NC(=O)c2coc3ccccc23)C2CCCCC2)c(F)c1)C(=O)N1CCN(C)CC1" ) 100 to 10000 nM

# get_value(readout='IC50', item= CCC(=O)N[C@@H](C(=O)N1CCN(C)CC1)[C@@H](C)c1ccc(NC(=O)C(NC(=O)c2ccnn2CC)C2CCc3cc(F)ccc32)c(F)c1 (single isomer, unassigned) ) < 10 nM

# get_value(readout='IC50', item= "CCc1ccoc1C(=O)N[C@H](C(=O)Nc1ccc([C@H](C)[C@@H](NC(=O)c2cnns2)C(=O)N2CCN(C)CC2)cc1F)[C@H]1CC[C@H](C)CC1" ) 10 to 100 nM

# get_value(readout='IC50', item= "CCC(=O)N[C@@H](C(=O)N1CCN(C)CC1)[C@@H](C)c1ccc(NC(=O)[C@@H](NC(=O)c2nonc2CC)[C@H](OC)c2ccc(F)cc2)c(F)c1" ) 10 to 100 nM

# get_value(readout='IC50', item= "CCC(=O)N[C@@H](C(=O)N1CCN(C)CC1)[C@@H](C)c1ccc(NC(=O)[C@@H](NC(=O)c2conc2CC)C2CCCCCC2)c(F)c1" ) < 10 nM

# get_value(readout='IC50', item= "C[C@@H](c1ccc(NC(=O)[C@@H](NC(=O)C(F)(F)c2cccc(C#N)c2)C2CCCCC2)c(F)c1)[C@@H](NC(=O)CC1CC1)C(=O)N1CCN(C)CC1" ) < 10 nM

# get_value(readout='IC50', item= "CCC(=O)N[C@H](Cc1ccc(NC(=O)[C@@H](NC(=O)c2ccnn2CC(F)F)C2CCCCC2)c(F)c1)C(=O)N1CCN(C)CC1" ) 100 to 10000 nM

# get_value(readout='IC50', item= "CCC(=O)N[C@H](Cc1ccc(NC(=O)[C@@H](NC(=O)c2ccnn2CC)C2CCCCC2)c(F)c1)C(=O)N1CCN(C(C)C)CC1" ) 100 to 10000 nM

# get_value(readout='IC50', item= "CCC(=O)N[C@@H](C(=O)N1CCOCC1)[C@@H](C)c1ccc(NC(=O)[C@@H](NC(=O)c2ccnn2CC)C2CCCCC2)c(F)c1" ) 10 to 100 nM
